Cited source for all entries: the kinase profiling compilation of Christmann-Franck et al. (2016)

Target: ERBB4 (human)
Experiment: radiometric filter-binding kinase assay
Details: compound 1.0 µM
readoutType: residual activity (%)
Number in %, nothing else.

Give the measured residual activity of `O=C(O)c1ccc(-c2c[nH]c3ncc(-c4ccccc4)cc23)cc1C1CCCC1` .
86

Give the measured residual activity of `NS(=O)(=O)OC[C@@H]1C[C@@H](n2ccc3c(N[C@H]4CCc5ccccc54)ncnc32)C[C@@H]1O` .
110

Give the measured residual activity of `O=c1c(O)c(-c2ccc(O)c(O)c2)oc2cc(O)c(O)c(O)c12` .
109

Give the measured residual activity of `C=CC(=O)N1CCC[C@@H](n2nc(-c3ccc(Oc4ccccc4)cc3)c3c(N)ncnc32)C1` .
8

Give the measured residual activity of `N#Cc1c(C2CCNCC2)cc(-c2c(O)cccc2OCC2CC2)nc1N` .
71

Give the measured residual activity of `NCC(=O)Nc1ccc(-n2nc(C(F)(F)F)cc2-c2ccc3c(ccc4ccccc43)c2)cc1` .
106

Give the measured residual activity of `Cc1cc(NC(=O)c2cccc(NC(=O)/C=C/CN(C)C)c2)ccc1Nc1nccc(-c2cccnc2)n1` .
98

Give the measured residual activity of `COc1ccc(N(C(=O)Nc2c(C)cccc2C)c2cc(Nc3ccc(N4CCN(C)CC4)cc3)ncn2)c(OC)c1` .
18

Give the measured residual activity of COc1cc(O)c2c(c1)[C@H]1OC1C[C@H](O)[C@H](O)C(=O)/C=C\C[C@H](C)OC2=O (some centres undefined) .
105

Give the measured residual activity of `CN1C(=O)[C@@H](Cc2c[nH]c3ccccc23)NC1=S` .
109

Give the measured residual activity of `c1ccc2c(-c3cnn4cc(-c5ccc(N6CCNCC6)cc5)cnc34)ccnc2c1` .
76

Give the measured residual activity of `CNc1nc(-c2ccc3c(N)n[nH]c3c2)cc(N2C[C@@H](C(=O)NC3CCCCC3)CC[C@H]2C)n1` .
106

Give the measured residual activity of `CCn1c(-c2nonc2N)nc2cncc(CNC3CCNCC3)c21` .
104

Give the measured residual activity of `O=C(N[C@@H](COc1ccc2[nH]c(=O)[nH]c2c1)c1ccccc1)c1cccn(Cc2ccc(F)c(F)c2)c1=O` .
100

Give the measured residual activity of `Cc1ccc(Sc2cnc(Nc3cccc(Br)n3)s2)cc1C(=O)N1CCN(C(=O)CN)CC1` .
64

Give the measured residual activity of `FC(F)(F)c1ccc(-c2ccc(Oc3cncc4sc(-c5nn[nH]n5)cc34)cc2)cc1` .
94

Give the measured residual activity of `NC(=O)c1cc2c(-c3cccc(-c4ccccc4)c3)cnc(N)c2s1` .
40

Give the measured residual activity of C=C1C(=O)OC2C1CC/C(C)=C/CCC1(C)OC21 (centres undefined) .
98

Give the measured residual activity of CNC(=O)C1[C@H]2O[C@@](C)([C@@H]1N)n1c3ccccc3c3c4c(c5c6ccccc6n2c5c31)C(=O)NC4 (some centres undefined) .
14

* * *

Target: CLK2 (human) (UniProt P49760)
Sequence (P49760 whole entry, looked up): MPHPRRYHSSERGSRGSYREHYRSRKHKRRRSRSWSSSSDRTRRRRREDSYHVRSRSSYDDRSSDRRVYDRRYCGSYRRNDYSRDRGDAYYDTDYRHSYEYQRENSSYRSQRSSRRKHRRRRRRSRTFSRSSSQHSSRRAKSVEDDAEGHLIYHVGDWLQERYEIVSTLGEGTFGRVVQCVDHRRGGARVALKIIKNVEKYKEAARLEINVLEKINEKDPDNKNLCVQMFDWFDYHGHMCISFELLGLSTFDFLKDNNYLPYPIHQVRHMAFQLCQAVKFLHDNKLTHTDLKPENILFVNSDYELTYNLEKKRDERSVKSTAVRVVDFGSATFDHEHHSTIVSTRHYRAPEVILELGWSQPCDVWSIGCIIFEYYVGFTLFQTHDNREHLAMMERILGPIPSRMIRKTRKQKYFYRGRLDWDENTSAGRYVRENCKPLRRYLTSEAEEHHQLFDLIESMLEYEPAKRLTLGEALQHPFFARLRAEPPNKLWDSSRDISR
Experiment: radiometric filter-binding kinase assay
Details: compound 0.1 µM
readoutType: residual activity (%)
Number in %, nothing else.

Give the measured residual activity of `O=C(Nc1nc2cc(C(F)(F)F)cc(NC3CC3)n2n1)c1cccnc1` .
82

Give the measured residual activity of `COc1ccc(-n2ncc3cnc(Nc4cc(OC)c(OC)c(OCCCN5CCN(C)CC5)c4)nc32)cc1` .
30

Give the measured residual activity of CC1=C(CO)C(=O)O[C@@H]([C@@H](C)[C@H]2CC[C@H]3[C@@H]4C[C@H]5O[C@]56[C@@H](O)C=CC(=O)[C@]6(C)C4CC[C@]23C)C1 (some centres not stated) .
88

Give the measured residual activity of `Cc1cccc(-c2nn(C(=S)Nc3ccccc3)cc2-c2ccnc3ccccc23)n1` .
106

Give the measured residual activity of `O=C(O)c1ccc(-c2c[nH]c3ncc(-c4ccccc4)cc23)cc1C1CCCC1` .
65

Give the measured residual activity of `NC(=O)c1cc2c(-c3cccc(-c4ccccc4)c3)cnc(N)c2s1` .
50

Give the measured residual activity of `O=C(N[C@@H](COc1ccc2[nH]c(=O)[nH]c2c1)c1ccccc1)c1cccn(Cc2ccc(F)c(F)c2)c1=O` .
106

Give the measured residual activity of `NC(=O)c1cc(-c2ccnc(NC3CCCCC3)c2)nc(N2CCNCC2)c1` .
78

Give the measured residual activity of CNC(=O)C1[C@H]2O[C@@](C)([C@@H]1N)n1c3ccccc3c3c4c(c5c6ccccc6n2c5c31)C(=O)NC4 (some centres not stated) .
-1

Give the measured residual activity of `COc1ccc(N(C(=O)Nc2c(C)cccc2C)c2cc(Nc3ccc(N4CCN(C)CC4)cc3)ncn2)c(OC)c1` .
100

Give the measured residual activity of `O=C(NCCCNc1nc(Nc2cccc(CN3CCOCC3)c2)ncc1C1CC1)C1CCC1` .
63

Give the measured residual activity of `CCn1c(-c2nonc2N)nc2cncc(CNC3CCNCC3)c21` .
107

Give the measured residual activity of `CN1CCN(CCOc2cc(OC3CCOCC3)c3c(Nc4c(Cl)ccc5c4OCO5)ncnc3c2)CC1` .
111

Give the measured residual activity of `COc1cc(O)c2c(c1)/C=C/C[C@H](O)[C@H](O)C(=O)/C=C\C[C@H](C)OC2=O` .
96

Give the measured residual activity of `Cc1ccc(-c2ccc3c(ccc4sc5c(c43)NC[C@@H](C)NC5=O)n2)cn1` .
86

Give the measured residual activity of `CN(C)C/C=C/C(=O)Nc1cccc(C(=O)Nc2ccc(Nc3nccc(-c4cccnc4)n3)cc2)c1` .
49

Give the measured residual activity of `Cc1cc(NC(=O)c2cccc(NC(=O)/C=C/CN(C)C)c2)ccc1Nc1nccc(-c2cccnc2)n1` .
102

Give the measured residual activity of `NC1(c2ccc(-c3nc4ccn5c(=O)[nH]nc5c4cc3-c3ccccc3)cc2)CCC1` .
103

Give the measured residual activity of COc1cc(O)c2c(c1)[C@H]1OC1C[C@H](O)[C@H](O)C(=O)/C=C\C[C@H](C)OC2=O (some centres not stated) .
100

Give the measured residual activity of `CCCCCc1ccc(/C=C/[C@H](O)[C@@H](CO)NC)cc1` .
106

Give the measured residual activity of `c1ccc2c(-c3cnn4cc(-c5ccc(N6CCNCC6)cc5)cnc34)ccnc2c1` .
67

Give the measured residual activity of `Cc1ccc(Sc2cnc(Nc3cccc(Br)n3)s2)cc1C(=O)N1CCN(C(=O)CN)CC1` .
3

* * *

Biological target: EIF2AK3 (human)
Test: radiometric filter-binding kinase assay
Settings: compound 0.1 µM
readoutType: residual activity (%)
Number in %, nothing else.

Give the measured residual activity of `CN(C)C/C=C/C(=O)Nc1cccc(C(=O)Nc2ccc(Nc3nccc(-c4cccnc4)n3)cc2)c1` .
90

Give the measured residual activity of CNC(=O)C1[C@H]2O[C@@](C)([C@@H]1N)n1c3ccccc3c3c4c(c5c6ccccc6n2c5c31)C(=O)NC4 (some centres undefined) .
59

Give the measured residual activity of `COc1ccc(N(C(=O)Nc2c(C)cccc2C)c2cc(Nc3ccc(N4CCN(C)CC4)cc3)ncn2)c(OC)c1` .
97

Give the measured residual activity of `Cc1ccc(-c2ccc3c(ccc4sc5c(c43)NC[C@@H](C)NC5=O)n2)cn1` .
114

Give the measured residual activity of COc1cc(O)c2c(c1)[C@H]1OC1C[C@H](O)[C@H](O)C(=O)/C=C\C[C@H](C)OC2=O (some centres undefined) .
92

Give the measured residual activity of `O=C(Nc1nc2cc(C(F)(F)F)cc(NC3CC3)n2n1)c1cccnc1` .
117

Give the measured residual activity of `CN1CCN(CCOc2cc(OC3CCOCC3)c3c(Nc4c(Cl)ccc5c4OCO5)ncnc3c2)CC1` .
111

Give the measured residual activity of CC1=C(CO)C(=O)O[C@@H]([C@@H](C)[C@H]2CC[C@H]3[C@@H]4C[C@H]5O[C@]56[C@@H](O)C=CC(=O)[C@]6(C)C4CC[C@]23C)C1 (some centres undefined) .
129

Give the measured residual activity of `Cc1cc(NC(=O)c2cccc(NC(=O)/C=C/CN(C)C)c2)ccc1Nc1nccc(-c2cccnc2)n1` .
103

Give the measured residual activity of `NC(=O)c1cc(-c2ccnc(NC3CCCCC3)c2)nc(N2CCNCC2)c1` .
108

Give the measured residual activity of `O=C(NCCCNc1nc(Nc2cccc(CN3CCOCC3)c2)ncc1C1CC1)C1CCC1` .
92

Give the measured residual activity of `O=C(N[C@@H](COc1ccc2[nH]c(=O)[nH]c2c1)c1ccccc1)c1cccn(Cc2ccc(F)c(F)c2)c1=O` .
107

Give the measured residual activity of `CCn1c(-c2nonc2N)nc2cncc(CNC3CCNCC3)c21` .
93

Give the measured residual activity of `C=CC(=O)N1CCC[C@@H](n2nc(-c3ccc(Oc4ccccc4)cc3)c3c(N)ncnc32)C1` .
110
